- Test name: Testosterone serum level after oromucosal (buccal) administration of testosterone solution, chemiluminescent-immunoassay
- Conditions used: human, serum, other: buccal (oromucosal) solution, spray, 500 μg, testosterone (T) serum level, Volunteer D, sample D2, 8.00 am; aqueous solution 500 μg T at 7.30, 9.30, 11.30 am
Test readout: concentration at 0.5 h (nM)
Your answer is read as nM, so omit the unit and give the number.

In plain terms, C[C@]12CC[C@H]3[C@@H](CCC4=CC(=O)CC[C@@]43C)[C@@H]1CC[C@@H]2O [testosterone] has a documented concentration at 0.5 h of 18.6

====

- Test name: Testosterone serum level after oromucosal (buccal) administration of testosterone solution, chemiluminescent-immunoassay
- Conditions used: human, serum, other: buccal (oromucosal spray), 500 μg, increase of testosterone serum level, aqueous solution, 100 μL (=500 μg testosterone) buccally, 30 minutes post dose; volunteer, baseline 10-15 nmol/L
Test readout: concentration at 30 min (nM)
Your answer is read as nM, so omit the unit and give the number.

In plain terms, C[C@]12CC[C@H]3[C@@H](CCC4=CC(=O)CC[C@@]43C)[C@@H]1CC[C@@H]2O [testosterone] has a documented concentration at 30 min of 20

====

- Test name: Testosterone serum level after oromucosal (buccal) administration of testosterone solution, chemiluminescent-immunoassay
- Conditions used: human, serum, other: buccal (oromucosal spray), 400 μg, increase of testosterone serum level, non-aqueous solution, 50 μL=400 μg testosterone buccally, 30 minutes post dose; volunteer, baseline 10-15 nmol/L
Test readout: concentration at 30 min

In plain terms, "C[C@]12CC[C@H]3[C@@H](CCC4=CC(=O)CC[C@@]43C)[C@@H]1CC[C@@H]2O" has a documented concentration at 30 min of 18 nM

====

- Test name: Testosterone serum level after oromucosal (buccal) administration of testosterone solution, chemiluminescent-immunoassay
- Conditions used: human, serum, other: buccal (oromucosal spray), 1000 μg, increase of testosterone serum level, aqueous solution, 2×100 μL (=1000 μg testosterone) buccally, 30 minutes post dose; volunteer, baseline 10-15 nmol/L
Test readout: concentration at 30 min (nM)
Your answer is read as nM, so omit the unit and give the number.

In plain terms, "C[C@]12CC[C@H]3[C@@H](CCC4=CC(=O)CC[C@@]43C)[C@@H]1CC[C@@H]2O" has a documented concentration at 30 min of 38

====

- Test name: Testosterone serum level after oromucosal (buccal) administration of testosterone solution, chemiluminescent-immunoassay
- Conditions used: human, serum, other: buccal (oromucosal) solution, spray, 500 μg, testosterone (T) serum level, Volunteer M, sample M1, 7.30 am (time of first dose); aqueous solution 500 μg T at 7.30 am, 375 μg T at 9.30 and 11.30 am
Test readout: concentration at 0 h (nM)
Your answer is read as nM, so omit the unit and give the number.

In plain terms, "C[C@]12CC[C@H]3[C@@H](CCC4=CC(=O)CC[C@@]43C)[C@@H]1CC[C@@H]2O" has a documented concentration at 0 h of 8.72

====

- Test name: Testosterone serum level after oromucosal (buccal) administration of testosterone solution, chemiluminescent-immunoassay
- Conditions used: human, serum, other: buccal (oromucosal) solution, spray, 500 μg, testosterone (T) serum level, Volunteer D, sample D4, 12.00 am; aqueous solution 500 μg T at 7.30, 9.30, 11.30 am
Test readout: concentration at […] (nM)
Your answer is read as nM, so omit the unit and give the number.

In plain terms, "C[C@]12CC[C@H]3[C@@H](CCC4=CC(=O)CC[C@@]43C)[C@@H]1CC[C@@H]2O" has a documented concentration at […] of 28.7
